- System: human brain-derived dopamine D4 receptor (Homo sapiens)
- Construct: expressed in transfected cells; host or cells: CHO (CHO-K1) or HEK293 cells
- Assay Text: Agonistic activity in G protein dependent pathway of dopamine D4 receptor (aequorin intracellular calcium luminescence, FDSS)
- Type: cell-based
- Test Conditions: read-out: Maximal activity on D4 receptor (%)
Experimental Readout: Emax (%)
Respond with the bare value in %.

Returns the measured Emax for the input molecule. Input: Cc1cccnc1-c1cc2n(n1)CCN(Cc1ccc(Cl)cn1)C2
85

Returns the measured Emax for the input molecule. Input: Cc1cccnc1-c1cc2n(n1)CCN(Cc1nc(C)n3ccccc13)C2
78

Returns the measured Emax for the input molecule. Input: Cc1c(-c2ccccn2)nn2c1CN(Cc1ccc(C#N)cc1)CC2
61

Returns the measured Emax for the input molecule. Input: Cc1ccc2c(CN3CCn4nc(-c5ncccc5C)cc4C3)n[nH]c2c1
67

Returns the measured Emax for the input molecule. Input: Cn1nc2ccccc2c1CN1CCn2nc(-c3ncccc3F)cc2C1
65

Returns the measured Emax for the input molecule. Input: Cc1cccnc1-c1cc2n(n1)CCN(Cc1cn(C)c3ccccc13)C2
71

Returns the measured Emax for the input molecule. Input: N#Cc1ccc(CN2CCn3nc(-c4ncccc4F)cc3C2)cc1
50

Returns the measured Emax for the input molecule. Input: Cc1cccc(CN2CCn3nc(-c4ncccc4C(F)(F)F)cc3C2)n1
74

Returns the measured Emax for the input molecule. Input: Cc1ncc(CN2CCn3nc(-c4ncccc4C)cc3C2)cn1
48

Returns the measured Emax for the input molecule. Input: COc1ccccc1-c1cc2n(n1)CCN(Cc1cn3ccccc3n1)C2
52

Returns the measured Emax for the input molecule. Input: Cc1cccnc1-c1cc2n(n1)CCN(Cc1cccc(Cl)c1)C2
58

* * *

- System: human brain-derived dopamine D4 receptor (Homo sapiens, UniProt P21917)
- Sequence (P21917 1-419): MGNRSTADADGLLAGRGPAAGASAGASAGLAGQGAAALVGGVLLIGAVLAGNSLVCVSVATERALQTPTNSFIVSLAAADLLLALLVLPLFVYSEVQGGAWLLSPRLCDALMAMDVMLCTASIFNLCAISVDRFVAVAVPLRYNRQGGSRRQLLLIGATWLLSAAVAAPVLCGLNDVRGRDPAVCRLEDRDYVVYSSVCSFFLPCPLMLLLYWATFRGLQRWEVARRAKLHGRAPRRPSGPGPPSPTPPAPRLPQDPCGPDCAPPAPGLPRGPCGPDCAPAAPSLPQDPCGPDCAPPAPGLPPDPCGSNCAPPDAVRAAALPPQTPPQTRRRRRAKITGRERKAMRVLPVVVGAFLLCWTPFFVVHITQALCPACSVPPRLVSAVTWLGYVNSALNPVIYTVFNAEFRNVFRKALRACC
- Assay Text: Agonistic activity in G protein dependent pathway of dopamine D4 receptor (aequorin intracellular calcium luminescence, FDSS)
- Test Conditions: concentration required to achieve a 50% response of Emax; CHO-K1 or HEK293 cells transfected with D4 receptor
Give pEC50 for every item shown.
In simple prose, pEC50 is minus the logarithm base ten of a concentration in moles per litre.

Returns the measured pEC50 for the input compound. Input: Cc1cccnc1-c1cc2n(n1)CCN(Cc1ccc(Cl)cn1)C2
7.31

Returns the measured pEC50 for the input compound. Input: Cc1cccnc1-c1cc2n(n1)CCN(Cc1ccc(F)c(C)n1)C2
7.31

Returns the measured pEC50 for the input compound. Input: Cc1cccnc1-c1cc2n(n1)CCN(Cc1ccc(C(F)F)nc1)C2
7.30

* * *

- System: human brain-derived dopamine D4 receptor (Homo sapiens, UniProt P21917)
- Assay Text: Agonistic activity in G protein dependent pathway of dopamine D4 receptor (aequorin intracellular calcium luminescence, FDSS)
- Test Conditions: concentration required to achieve a 50% response of Emax; CHO-K1 or HEK293 cells transfected with D4 receptor
- Method: The G protein dependent pathway is a pathway for transmitting signals in cells via a second messenger by stimulating a G protein through the binding of guanosine triphosphate (GTP) to the G protein. […] The agonistic activities of the present compounds in the G protein dependent pathway were evaluated on the basis of intracellular calcium levels as follows. […]
Structures can show the parent of a compound that is named as a salt.
Experimental Readout: pEC50
In simple prose, pEC50 is minus the logarithm base ten of a concentration in moles per litre.

Returns the measured pEC50 for the input compound. Input: Cc1c(-c2ncccc2F)nn2c1CN(Cc1ccc(C(F)(F)F)cn1)CC2
7.44

Returns the measured pEC50 for the input compound. Input: Cc1ccncc1CN1CCn2nc(-c3ncccc3C)cc2C1
6.80

Returns the measured pEC50 for the input compound. Input: Cc1nc2c(CN3CCn4nc(-c5ccccn5)cc4C3)cccc2[nH]1
7.00

Returns the measured pEC50 for the input compound. Input: Cc1cccnc1-c1cc2n(n1)CCN(Cc1cc3ccccc3[nH]1)C2
7.35

Returns the measured pEC50 for the input compound. Input: Fc1ccc(CN2CCn3nc(-c4ncccc4F)cc3C2)cn1
7.29

Returns the measured pEC50 for the input compound. Input: Cc1cccnc1-c1cc2n(n1)CCN(Cc1ccc(OC(F)(F)F)c(F)c1)C2 [Example 177, monohydrochloride]
6.85

Returns the measured pEC50 for the input compound. Input: Cc1cccnc1-c1cc2n(n1)CCN(Cc1ccc(C#N)cc1)C2
7.08

Returns the measured pEC50 for the input compound. Input: Cc1cccc(CN2CCn3nc(-c4ncccc4C)c(C)c3C2)n1
7.24

* * *

Give pEC50 for every item shown.
- System: human brain-derived dopamine D4 receptor (Homo sapiens, UniProt P21917)
- Assay Text: Agonistic activity in G protein dependent pathway of dopamine D4 receptor (aequorin intracellular calcium luminescence, FDSS)
- Test Conditions: concentration required to achieve a 50% response of Emax; CHO-K1 or HEK293 cells transfected with D4 receptor
In simple prose, pEC50 is minus the logarithm base ten of a concentration in moles per litre.

Form: Entry = Cc1cccc(CN2CCn3nc(-c4ncccc4F)c(C)c3C2)n1 | System = human brain-derived dopamine D4 receptor (Homo sapiens, UniProt P21917) | pEC50 = ____
7.96

Form: Entry = c1ccc(-c2cc3n(n2)CCN(Cc2ccc4[nH]ncc4c2)C3)nc1 | System = human brain-derived dopamine D4 receptor (Homo sapiens, UniProt P21917) | pEC50 = ____
6.94

Form: Entry = Cc1cnc(N)c(CN2CCn3nc(-c4ncccc4C)cc3C2)c1 | System = human brain-derived dopamine D4 receptor (Homo sapiens, UniProt P21917) | pEC50 = ____
6.90

Form: Entry = Cc1cccnc1-c1cc2n(n1)CCN(Cc1ccc3c(c1)N(C)C(=O)CC3)C2 | System = human brain-derived dopamine D4 receptor (Homo sapiens, UniProt P21917) | pEC50 = ____
7.07

Form: Entry = Cc1cccnc1-c1cc2n(n1)CCN(Cc1nc3ccccc3[nH]1)C2 | System = human brain-derived dopamine D4 receptor (Homo sapiens, UniProt P21917) | pEC50 = ____
7.39

Form: Entry = Fc1cccnc1-c1cc2n(n1)CCN(Cc1ccccc1)C2 | System = human brain-derived dopamine D4 receptor (Homo sapiens, UniProt P21917) | pEC50 = ____
8.47

Form: Entry = Cc1cccnc1-c1nn2c(c1C)CN(Cc1ccc(C(F)(F)F)cc1)CC2 | System = human brain-derived dopamine D4 receptor (Homo sapiens, UniProt P21917) | pEC50 = ____
7.06

Form: Entry = O=C1CCc2ccc(CN3CCn4nc(-c5ccccn5)cc4C3)cc2N1 | System = human brain-derived dopamine D4 receptor (Homo sapiens, UniProt P21917) | pEC50 = ____
7.29

Form: Entry = Cc1nc(CN2CCn3nc(-c4ncccc4C)cc3C2)cs1 | System = human brain-derived dopamine D4 receptor (Homo sapiens, UniProt P21917) | pEC50 = ____
9.22

Form: Entry = Cc1c(-c2ccccn2)nn2c1CN(Cc1ccc(C(F)(F)F)nc1)CC2 | System = human brain-derived dopamine D4 receptor (Homo sapiens, UniProt P21917) | pEC50 = ____
7.29

Form: Entry = O=C1NCc2cc(CN3CCn4nc(-c5ccccn5)cc4C3)ccc21 | System = human brain-derived dopamine D4 receptor (Homo sapiens, UniProt P21917) | pEC50 = ____
7.15

Form: Entry = Nc1nc(C(F)(F)F)ccc1CN1CCn2nc(-c3ccccn3)cc2C1 | System = human brain-derived dopamine D4 receptor (Homo sapiens, UniProt P21917) | pEC50 = ____
7.33

* * *

- System: human brain-derived dopamine D4 receptor (Homo sapiens, UniProt P21917)
- Assay Text: Agonistic activity in G protein dependent pathway of dopamine D4 receptor (aequorin intracellular calcium luminescence, FDSS)
- Test Conditions: concentration required to achieve a 50% response of Emax; CHO-K1 or HEK293 cells transfected with D4 receptor
Strictly below 30 nM in EC50: t. Otherwise: f.

Hi there! Is EC50 for Cc1cccnc1-c1cc2n(n1)CCN(Cc1ccc(CF)cn1)C2 [Example 123] below 30 nM, do you know?
f

Hi there! Is EC50 for Cn1c(CN2CCn3nc(-c4ncccc4F)cc3C2)nc2ccccc21 [Example 164] below 30 nM, do you know?
f

Hi there! Is EC50 for Cc1cccnc1-c1cc2n(n1)CCN(Cc1cnn3ccccc13)C2 [Example 89] below 30 nM, do you know?
f

Hi there! Is EC50 for Cc1ccnc(CN2CCn3nc(-c4ccccn4)c(C)c3C2)c1 [Example 93] below 30 nM, do you know?
t

Hi there! Is EC50 for Cc1ncc(CN2CCn3nc(-c4ncccc4C)cc3C2)c(C)n1 [Example 190] below 30 nM, do you know?
f

Hi there! Is EC50 for Cc1cccnc1-c1cc2n(n1)CCN(Cc1cc3c(cn1)COC3)C2 [Example 182] below 30 nM, do you know?
f

Hi there! Is EC50 for Cc1ccc(CN2CCn3nc(-c4ncccc4F)cc3C2)cn1 [Example 50] below 30 nM, do you know?
f

Hi there! Is EC50 for Cc1cccnc1-c1cc2n(n1)CCN(Cc1n[nH]c3ccccc13)C2 [Example 35] below 30 nM, do you know?
t

Hi there! Is EC50 for Fc1cccnc1-c1cc2n(n1)CCN(Cc1ccc3c(n1)CCCC3)C2 [Example 130] below 30 nM, do you know?
t

Hi there! Is EC50 for Cc1c(-c2ccccn2)nn2c1CN(Cc1ccccc1)CCC2 [Example 32] below 30 nM, do you know?
t

Hi there! Is EC50 for Cc1c(-c2ncccc2F)nn2c1CN(Cc1ccc3c(n1)CCC3)CC2 [Example 125] below 30 nM, do you know?
t

Hi there! Is EC50 for Fc1ccc2[nH]nc(CN3CCn4nc(-c5ccccn5)cc4C3)c2c1 [Example 4] below 30 nM, do you know?
t

Hi there! Is EC50 for Cc1cccnc1-c1cc2n(n1)CCN(Cc1c3ccccc3nn1C)C2 [Example 149] below 30 nM, do you know?
f

Hi there! Is EC50 for Cc1cccnc1-c1cc2n(n1)CCN(Cc1cc3n(n1)CCCC3)C2 [Example 91] below 30 nM, do you know?
f

Hi there! Is EC50 for COc1ccccc1-c1cc2n(n1)CCN(Cc1ccc(F)cc1F)C2 [Example 25] below 30 nM, do you know?
f

Hi there! Is EC50 for Cc1cccnc1-c1cc2n(n1)CCN(Cc1n[nH]c3c(F)cccc13)C2 [Example 40] below 30 nM, do you know?
t

Hi there! Is EC50 for Fc1c(-c2ccccn2)nn2c1CN(Cc1ccccc1)CC2 [Example 78] below 30 nM, do you know?
t

Hi there! Is EC50 for Cc1cccnc1-c1cc2n(n1)CCN(Cc1ccc(C(F)(F)F)c(F)c1)C2 [Example 48] below 30 nM, do you know?
f

Hi there! Is EC50 for Cc1cccnc1-c1cc2n(n1)CCN(Cc1cccc(Cl)c1)C2 [Example 59] below 30 nM, do you know?
f

Hi there! Is EC50 for Cc1cccc(CN2CCn3nc(-c4ncccc4F)cc3C2)n1 [Example 161] below 30 nM, do you know?
t

Hi there! Is EC50 for Cc1cccnc1-c1cc2n(n1)CCN(Cc1cc3ccccn3n1)C2 [Example 90] below 30 nM, do you know?
t

Hi there! Is EC50 for Cc1cccnc1-c1cc2n(n1)CCN(Cc1cccc(F)c1)C2 [Example 61] below 30 nM, do you know?
f

Hi there! Is EC50 for Cc1ccc(CN2CCn3nc(-c4ncccc4C)cc3C2)nc1 [Example 107] below 30 nM, do you know?
t

Hi there! Is EC50 for Cc1cccnc1-c1cc2n(n1)CCN(Cc1ccc3c(n1)CCC3)C2 [Example 113] below 30 nM, do you know?
t

Hi there! Is EC50 for N#Cc1cc(CN2CCn3nc(-c4ccccn4)cc3C2)ccc1F [Example 36] below 30 nM, do you know?
f

Hi there! Is EC50 for Cc1cccnc1-c1nn2c(c1C)CN(Cc1ccc(C(F)(F)F)cn1)CC2 [Example 118] below 30 nM, do you know?
f

Hi there! Is EC50 for Cc1ccc(CN2CCn3nc(-c4ncccc4C)cc3C2)cn1 [Example 67] below 30 nM, do you know?
t

Hi there! Is EC50 for Fc1cccc2[nH]nc(CN3CCn4nc(-c5ccccn5)cc4C3)c12 [Example 102] below 30 nM, do you know?
f

Hi there! Is EC50 for Cc1cccnc1-c1cc2n(n1)CCN(Cc1cccc(OC(F)(F)F)c1)C2 [Example 63] below 30 nM, do you know?
f

Hi there! Is EC50 for Cc1cccnc1-c1cc2n(n1)CCN(Cc1n[nH]c3ccc(F)cc13)C2 [Example 44] below 30 nM, do you know?
t

Hi there! Is EC50 for Cc1cccnc1-c1cc2n(n1)CCN(Cc1ccc(F)cc1)C2 [Example 58] below 30 nM, do you know?
t

Hi there! Is EC50 for Cc1cccnc1-c1cc2n(n1)CCN(Cc1ccc(C(F)(F)F)nc1)C2 [Example 143] below 30 nM, do you know?
f

Hi there! Is EC50 for Cn1c(CN2CCn3nc(-c4ncccc4F)cc3C2)cc2ccccc21 [Example 150] below 30 nM, do you know?
f
